assaySystem: SARS-CoV-2 3CL protease (Severe acute respiratory syndrome coronavirus 2)
measurementDescription: biochemical
conditions: 50% SARS-CoV-2 3CL protease inhibitory concentration; RapidFire MS; read-out: IC50
Quick list: pIC50 per entry.
# log scale: pIC50 equals minus log10 of the concentration in mol/L

Cn1cc2cc(Nc3nc(=O)n(-c4cncc5ccccc45)c(=O)n3Cc3ccc(F)c(C#N)c3)ccc2n1 : 8.27
Cc1cncc(-n2c(=O)nc(Nc3ccc4nn(CC(F)F)cc4c3)n(Cc3ccc(F)c(C#N)c3)c2=O)c1 : 8.06
Cn1cnc(Cn2c(=O)nc(N3CCc4ccccc4CC3)n(Cc3cc(F)c(F)c(F)c3)c2=O)n1 : 5.96

--- query ---
Fill in: pIC50 of O=c1nc(Nc2cc3cn(CCO)nc3cc2Cl)n(Cc2cc(F)c(F)c(F)c2)c(=O)n1-c1cncc2ccccc12 is ___
8.24

###

Tested on: SARS-CoV-2
measurementDescription: microbe, parasite or virus in culture
Format: cell-based
conditions: Severe acute respiratory syndrome coronavirus 2, VeroE6/TMPRSS2, 72 h, 50% SARS-CoV-2 infected cell death inhibitory concentration; VeroE6/TMPRSS2 cells, 3 days culture, CellTiter-Glo 2.0
measuredMetric: pEC50
# log scale: pEC50 equals minus log10 of the concentration in mol/L

COc1ccc(Nc2nc(=O)n(Cc3ncn(C(F)F)n3)c(=O)n2Cc2cc(F)c(F)c(F)c2)cc1 : 5.04
CCn1cc2cc(Nc3nc(=O)n(-c4cncc(Cl)c4)c(=O)n3Cc3cc(C#N)ccc3C)ccc2n1 : 6.63
Cn1cnc(Cn2c(=O)nc(Nc3cc4cn(CC(F)F)nc4cc3Cl)n(Cc3cc(F)c(F)c(F)c3)c2=O)n1 : 6.14
N#Cc1cc(Cn2c(Nc3ccc4c(c3)CCO4)nc(=O)n(-c3cncc4ccccc34)c2=O)ccc1F : 7.13
Cn1cc2cc(Nc3nc(=O)n(Cc4cc5ccsc5[nH]c4=O)c(=O)n3Cc3cc(F)c(F)c(F)c3)c(Cl)cc2n1 : 6.49
CCn1cc2cc(Nc3nc(=O)n(-c4cncc(C)c4)c(=O)n3Cc3ccc(F)c(C#N)c3)ccc2n1 : 6.03

Fill in: pEC50 of Cn1cnc(Cn2c(=O)nc(Nc3cc4cn(CC(F)F)nc4cc3Cl)n(Cc3cc(Cl)c(F)cc3F)c2=O)n1 is ___
6.38

Fill in: pEC50 of COc1ccc(Nc2nc(=O)n(-c3cc(C)cnn3)c(=O)n2Cc2cc(F)c(F)c(F)c2)cc1 is ___
4.68

###

Quick list: pIC50 per entry.
assaySystem: SARS-CoV-2 3CL protease (Severe acute respiratory syndrome coronavirus 2, UniProt P0DTD1)
measurementDescription: biochemical
conditions: 50% SARS-CoV-2 3CL protease inhibitory concentration, given as class symbols; read-out: IC50
pIC50: −log10 of the molar value.

Cc1nc2cc(Br)c(Nc3nc(=O)n(Cc4ncn(C)n4)c(=O)n3Cc3cc(F)c(F)cc3F)cc2s1 [II-0417] : > 7.00

Fill in: pIC50 of N#Cc1cc(Cn2c(Nc3cc4cn(CC(F)F)nc4cc3F)nc(=O)n(-c3cncc(Cl)c3)c2=O)ccc1F [II-0513] is ___
> 7.00

Fill in: pIC50 of Cc1cncc(-n2c(=O)nc(Nc3cc4cn(C)nc4cc3Cl)n(Cc3cc(F)c(F)cc3CCC(C)(C)O)c2=O)c1 [II-0073] is ___
> 7.00

Fill in: pIC50 of CNc1nc2ccc(Nc3nc(=O)n(-c4cncc(C)c4)c(=O)n3Cc3cc(C#N)ccc3Cl)cc2s1 [II-0497] is ___
> 7.00

Fill in: pIC50 of Cc1cncc(-n2c(=O)nc(Nc3cc4cn(C)nc4cc3Cl)n(Cc3cc(F)cc(F)c3)c2=O)c1 [II-0201] is ___
> 7.00

Fill in: pIC50 of Cn1cc2cc(Nc3nc(=O)n(-c4cncc(Cl)c4)c(=O)n3Cc3cc(Cl)c(F)cn3)c(Cl)cc2n1 [II-0592] is ___
> 7.00

Fill in: pIC50 of CNc1nc2ccc(Nc3nc(=O)n(-c4cncc(Cl)c4)c(=O)n3Cc3cc(F)c(F)c(C#N)c3)cc2s1 [II-0387] is ___
> 7.00

###

assaySystem: SARS-CoV-2 3CL protease (Severe acute respiratory syndrome coronavirus 2)
measurementDescription: biochemical
conditions: 50% SARS-CoV-2 3CL protease inhibitory concentration; RapidFire MS; read-out: IC50
measuredMetric: IC50 (nM)
Enter your answer as a number in nM; do not include the unit.

Cn1cc2cc(Nc3nc(=O)n(-c4cncc(Cl)c4)c(=O)n3Cc3cc(C#N)c(F)cc3Cl)ccc2n1 : 8.8

Request - read-out IC50 | tested on SARS-CoV-2 3CL protease (Severe acute respiratory syndrome coronavirus 2) | compound O=c1[nH]cccc1Cn1c(=O)nc(NC2CCCCC2)n(Cc2cc(F)c(F)c(F)c2)c1=O
240

Request - read-out IC50 | tested on SARS-CoV-2 3CL protease (Severe acute respiratory syndrome coronavirus 2) | compound Cc1cncc(-n2c(=O)nc(Nc3ccc4c(c3)CCO4)n(Cc3ccc(F)c(C#N)c3)c2=O)c1
5

Request - read-out IC50 | tested on SARS-CoV-2 3CL protease (Severe acute respiratory syndrome coronavirus 2) | compound Cc1cncc(-n2c(=O)nc(Nc3ccc4nn(C)cc4c3)n(Cc3cc(C#N)c(F)cc3C)c2=O)c1
3.5

Request - read-out IC50 | tested on SARS-CoV-2 3CL protease (Severe acute respiratory syndrome coronavirus 2) | compound Cn1cnc(Cn2c(=O)nc(Nc3cc4cn(CC(F)F)nc4cc3Cl)n(Cc3cc(F)c(F)c(F)c3)c2=O)n1
10

Request - read-out IC50 | tested on SARS-CoV-2 3CL protease (Severe acute respiratory syndrome coronavirus 2) | compound Cn1cnc(Cn2c(=O)nc(Nc3cc4cn(C)nc4cc3Cl)n(Cc3cccc4ccccc34)c2=O)n1
780

Request - read-out IC50 | tested on SARS-CoV-2 3CL protease (Severe acute respiratory syndrome coronavirus 2) | compound Cc1cnc(Cn2c(=O)nc(Nc3cc4cn(C)nc4cc3Cl)n(Cc3cc(F)c(F)cc3F)c2=O)nc1
260

###

assaySystem: SARS-CoV-2 3CL protease (Severe acute respiratory syndrome coronavirus 2, UniProt P0DTD1)
measurementDescription: biochemical
conditions: 50% SARS-CoV-2 3CL protease inhibitory concentration; RapidFire MS; read-out: IC50
# if measured IC50 < 40 nM: 1 (yes)  # else: 0 (no)

COc1ccc(Nc2nc(=O)n(Cc3ncn(C(F)F)n3)c(=O)n2Cc2cc(F)c(F)c(F)c2)cc1 : 0 (no)
Cc1cncc(-n2c(=O)nc(N(C)C3CCCCC3)n(Cc3cc(F)c(F)c(F)c3)c2=O)c1 : 0 (no)
Cc1cncc(-n2c(=O)nc(Nc3ccc4nn(C)cc4c3)n(Cc3cc(F)c(F)c(C#N)c3)c2=O)c1 : 1 (yes)
O=c1[nH]cccc1Cn1c(=O)nc(NC2CCOCC2)n(Cc2cc(F)c(F)c(F)c2)c1=O : 0 (no)
CS(=O)(=O)c1ccc(Nc2nc(=O)n(Cc3ccc[nH]c3=O)c(=O)n2Cc2cc(F)c(F)c(F)c2)cc1 : 0 (no)

Moving on to another compound below.
Hello, is IC50 of the following compound strictly smaller than 40 nM? Cc1cncc(-n2c(=O)nc(Nc3cc4cn(CC(F)F)nc4cc3Cl)n(Cc3cc(F)c(F)c(C#N)c3)c2=O)c1
1 (yes)

###

assaySystem: SARS-CoV-2 3CL protease (Severe acute respiratory syndrome coronavirus 2)
measurementDescription: biochemical
conditions: 50% SARS-CoV-2 3CL protease inhibitory concentration; RapidFire MS; read-out: IC50
pIC50: −log10 of the molar value.
Rule: pIC50 of 8 or more gives t; anything lower gives f.

The following compounds have reported results that may help.
CSc1nc(=O)n(-c2cncc3ccccc23)c(=O)n1Cc1cc(F)c(F)c(F)c1 : f
Cn1cc2cc(Nc3nc(=O)n(-c4cncc(C#N)c4)c(=O)n3Cc3ccc(F)c(C#N)c3)ccc2n1 : f
Cn1cnc(Cn2c(=O)nc(Nc3cc4c(F)n(C)nc4cc3Cl)n(Cc3cc(F)c(F)cc3F)c2=O)n1 : f
Cc1cncc(-n2c(=O)nc(Nc3cc4c(cc3Cl)nc3n4CCN3)n(Cc3ccc(F)c(C#N)c3)c2=O)c1 : t
COc1ccc(Nc2nc(=O)n(-c3cnc4sccn34)c(=O)n2Cc2cc(F)c(F)c(F)c2)cc1 : f
COc1ccc(Nc2nc(=O)n(CC3CCN(C)C3)c(=O)n2Cc2cc(F)c(F)c(F)c2)cc1 (stereo not drawn) : f
O=c1[nH]cccc1Cn1c(=O)nc(Nc2cc3ccnn3cc2Cl)n(Cc2cc(F)c(F)c(F)c2)c1=O : f
CC(=O)Nc1nc2cc(Cl)c(Nc3nc(=O)n(Cc4ccc[nH]c4=O)c(=O)n3Cc3cc(F)c(F)c(F)c3)cc2s1 : t
Cn1cnc(Cn2c(=O)nc(Nc3cc4cn(CC(F)F)nc4cc3Cl)n(Cc3cc(F)c(F)c(Cl)c3)c2=O)n1 : t
Cc1cncc(-n2c(=O)nc(Nc3ccc4nn(C)cc4c3)n(Cc3cc(F)c(F)cc3F)c2=O)c1 : f

Check if pIC50 >= 8 (inclusive). Item: Cn1cnc(Cn2c(=O)nc(Nc3cc4c(cc3Cl)nc3n4CCN3)n(Cc3cc(Cl)c(F)cc3F)c2=O)n1
t

Check if pIC50 >= 8 (inclusive). Item: O=c1[nH]cccc1Cn1c(=O)nc(-c2ccccc2)n(Cc2cc(F)c(F)c(F)c2)c1=O
f

Check if pIC50 >= 8 (inclusive). Item: Cn1cnc(Cn2c(=O)nc(Nc3cc4cn(C)nc4cc3Cl)n(Cc3cc(Cl)c(F)c(Cl)c3)c2=O)n1
t

Check if pIC50 >= 8 (inclusive). Item: Cc1cncc(-n2c(=O)nc(Nc3cc4cn(C)nc4cc3Cl)n(Cc3cc(Cl)c(F)cc3C)c2=O)c1
t

Check if pIC50 >= 8 (inclusive). Item: Cn1cc2cc(Nc3nc(=O)n(-c4cncc(Cl)c4)c(=O)n3Cc3cc(F)c(F)c(F)c3)ccc2n1
f

Check if pIC50 >= 8 (inclusive). Item: Cc1cncc(-n2c(=O)nc(Nc3cc4cn(C)nc4cc3Cl)n(C[C@@H]3CCCN3)c2=O)c1
f

Check if pIC50 >= 8 (inclusive). Item: Cn1cnc(Cn2c(=O)nc(Nc3cc4sc(NC5CC5)nc4cc3Cl)n(Cc3cc(F)c(F)cc3F)c2=O)n1
t

Check if pIC50 >= 8 (inclusive). Item: Cc1cncc(-n2c(=O)nc(N3CC4CCC3CC4)n(Cc3cc(F)c(F)c(F)c3)c2=O)c1
f

Check if pIC50 >= 8 (inclusive). Item: COc1ccc(Nc2nc(=O)n(-c3cnnc(C)c3)c(=O)n2Cc2cc(F)c(F)c(F)c2)cc1
f

Check if pIC50 >= 8 (inclusive). Item: Cc1cncc(-n2c(=O)nc(N3CC4(CCOC4)C3)n(Cc3cc(F)c(F)c(F)c3)c2=O)c1
f

Check if pIC50 >= 8 (inclusive). Item: Cn1cc2cc(Nc3nc(=O)n(Cc4cc(Cl)ccn4)c(=O)n3Cc3cc(F)c(F)cc3F)c(Cl)cc2n1
f

Check if pIC50 >= 8 (inclusive). Item: O=c1[nH]cccc1Cn1c(=O)nc(Nc2cc3cn(CCO)nc3cc2Cl)n(Cc2cc(F)c(F)c(F)c2)c1=O
t

Check if pIC50 >= 8 (inclusive). Item: COc1ccc(Nc2nc(=O)n(Cc3cc4c([nH]c3=O)CCC4)c(=O)n2Cc2cc(F)c(F)c(F)c2)cc1
f

Entry source: patent US12559474B2
